Target: UniProt P16054
Sequence (whole entry): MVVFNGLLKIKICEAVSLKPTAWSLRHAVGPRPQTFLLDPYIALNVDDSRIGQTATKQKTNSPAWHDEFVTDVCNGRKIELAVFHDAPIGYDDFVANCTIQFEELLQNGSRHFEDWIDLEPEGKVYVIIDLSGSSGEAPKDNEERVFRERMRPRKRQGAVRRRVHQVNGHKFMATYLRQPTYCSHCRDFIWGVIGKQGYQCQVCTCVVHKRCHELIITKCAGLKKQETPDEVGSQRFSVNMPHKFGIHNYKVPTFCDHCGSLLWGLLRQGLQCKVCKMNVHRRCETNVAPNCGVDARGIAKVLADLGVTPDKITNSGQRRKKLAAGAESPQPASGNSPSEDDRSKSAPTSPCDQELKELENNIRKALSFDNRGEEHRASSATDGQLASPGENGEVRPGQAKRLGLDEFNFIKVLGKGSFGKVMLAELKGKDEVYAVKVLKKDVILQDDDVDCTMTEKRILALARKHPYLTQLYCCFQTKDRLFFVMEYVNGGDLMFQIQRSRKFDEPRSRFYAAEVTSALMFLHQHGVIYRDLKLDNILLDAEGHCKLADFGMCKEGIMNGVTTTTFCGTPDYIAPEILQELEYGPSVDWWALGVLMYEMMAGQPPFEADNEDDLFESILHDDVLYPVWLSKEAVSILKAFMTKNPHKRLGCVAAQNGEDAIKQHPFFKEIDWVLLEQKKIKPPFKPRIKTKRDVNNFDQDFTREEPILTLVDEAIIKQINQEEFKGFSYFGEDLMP
Assay: Inhibition of mouse PKC epsilon expressed in Sf9 cells at 10 uM; values are per cent of control
READOUT_TYPE: residual activity (%)
API: value field is a number in %; no unit string.

Task: Consider the molecule COc1ccc2[nH]cc(C3=C(c4cc(OC)c(OC)c(OC)c4)C(=O)NC3=O)c2c1 and give its measured residual activity.
Result: 82

###

target: Protein kinase C alpha type (Mus musculus) (UniProt P20444); experiment: Inhibition of mouse PKC alpha expressed in Sf9 cells at 10 uM; values are per cent of control
READOUT_TYPE: residual activity (%)
Give the quantity in %, number only.

Reference set, count: 10
{"COMPOUND": "O=C1NC(=O)c2c1c1ccccc1c1[nH]c3ccccc3c21", "residual activity, %": 90}
{"COMPOUND": "COc1ccc(C2=C(c3cc(OC)c(OC)c(OC)c3)C(=O)NC2=O)cc1O", "residual activity, %": 61}
{"COMPOUND": "COc1ccc(C2=C(c3c[nH]c4ccccc34)C(=O)NC2=O)cc1", "residual activity, %": 95}
{"COMPOUND": "COc1cc(C2=C(c3c[nH]c4ccccc34)C(=O)NC2=O)cc(OC)c1OC [MALEIMIDE]", "residual activity, %": 29}
{"COMPOUND": "O=C1NC(=O)C(c2c[nH]c3ccccc23)=C1c1ccccc1", "residual activity, %": 63}
{"COMPOUND": "COc1ccc2[nH]c3c4c(OC)c(OC)c(OC)cc4c4c(c3c2c1)C(=O)NC4=O", "residual activity, %": 104}
{"COMPOUND": "O=C1NC(=O)C(c2c[nH]c3ccccc23)=C1c1ccc(Cl)cc1", "residual activity, %": 94}
{"COMPOUND": "COc1ccc(C2=C(c3ccccc3)C(=O)NC2=O)cc1OC", "residual activity, %": 85}
{"COMPOUND": "COc1ccc(C2=C(c3ccccc3)C(=O)NC2=O)cc1", "residual activity, %": 86}
{"COMPOUND": "COc1ccc(C2=C(c3ccc(OC)cc3)C(=O)NC2=O)cc1", "residual activity, %": 94}

Task: Form field: reported residual activity of COc1ccc(C2=C(c3cc(OC)c(OC)c(OC)c3)C(=O)NC2=O)cc1
Result: 90

Task: # lookup: residual activity of COc1cc(C2=C(c3ccccc3)C(=O)NC2=O)cc(OC)c1OC
Result: 79

Task: Entry COc1cc(C2=C(c3cc[nH]c3)C(=O)NC2=O)cc(OC)c1OC : reported residual activity = ?
Result: 62

Source: ChEMBL document CHEMBL1149451
